Test system: PC3 cells
assay notes: MTT assay, PC3
Assay type: cell-based, human
condition set: SI = IC50 for normal cell line (HaCaT)/IC50 cancer cell line

{"molecule": "CCCCCCCC/C=C\\CCCCCCCC(=O)N1CCCC2CN(c3c(F)cc4c(=O)c(C(=O)O)cn(C5CC5)c4c3OC)CC21 (stereo not drawn)", "SI PC3": 71.0}
{"molecule": "CCCCCCCCCCCCCCCC(=O)N1CCC[C@H]2CN(c3c(F)cc4c(=O)c(C(=O)O)cn(C5CC5)c4c3OC)C[C@H]21", "SI PC3": 11.9}
{"molecule": "CC/C=C\\C/C=C\\C/C=C\\CCCCCCCC(=O)N1CCCC2CN(c3c(F)cc4c(=O)c(C(=O)O)cn(C5CC5)c4c3OC)CC21 (stereo not drawn)", "SI PC3": 6.7}

* * *

Property: pIC50; scope: individual compounds
Test system: SW620 cells
assay notes: MTT assay, SW620
Assay type: cell-based, human
condition set: Homo sapiens, SW-620, 72 h, human metastatic colon cancer, 72 h, MTT, mean ± SD
pIC50: −log10 of the molar value.
endpoint: pIC50

{"compound": "COc1c(N2CC3CCCN(C(=O)/C=C(\\C)CCC=C(C)C)C3C2)c(F)cc2c(=O)c(C(=O)O)cn(C3CC3)c12 (stereo not drawn)", "test result": 4.42}
{"compound": "CCCCCCCCCCCCCCCC(=O)N1CCC[C@H]2CN(c3c(F)cc4c(=O)c(C(=O)O)cn(C5CC5)c4c3OC)C[C@H]21", "test result": 4.98}
{"compound": "CCCCCCCCCCCCCCCCCC(=O)N1CCCC2CN(c3c(F)cc4c(=O)c(C(=O)O)cn(C5CC5)c4c3OC)CC21 (stereo not drawn) [Compound 16m]", "test result": 5.19}
{"compound": "C=CCCCCC(=O)N1CCCC2CN(c3c(F)cc4c(=O)c(C(=O)O)cn(C5CC5)c4c3OC)CC21 (stereo not drawn) [Compound 10m]", "test result": 5.21}
{"compound": "CCCCCCCC/C=C\\CCCCCCCC(=O)N1CCCC2CN(c3c(F)cc4c(=O)c(C(=O)O)cn(C5CC5)c4c3OC)CC21 (stereo not drawn)", "test result": 5.47}
{"compound": "CCCCC/C=C\\C/C=C\\C/C=C\\C/C=C\\CCCC(=O)N1CCCC2CN(c3c(F)cc4c(=O)c(C(=O)O)cn(C5CC5)c4c3OC)CC21 (stereo not drawn) [Compound 13m]", "test result": 4.40}

* * *

Catalogue of compounds with associated MIC
Tested on: M. tuberculosis H37Rv
assay notes: MABA (microplate Alamar blue assay) MIC
Assay type: cell-based
condition set: Mycobacterium tuberculosis, 336 h, read-out: MIC M. tuberculosis H37Rv

{"compound": "CCCCCCCC/C=C\\CCCCCCCCCCCC(=O)N1CCCC2CN(c3c(F)cc4c(=O)c(C(=O)O)cn(C5CC5)c4c3OC)CC21 (stereo not shown)", "MIC": "> 512 µg/mL"}
{"compound": "CCCCCCCCCCCCCCCC(=O)N1CCC[C@H]2CN(c3c(F)cc4c(=O)c(C(=O)O)cn(C5CC5)c4c3OC)C[C@H]21", "MIC": "> 512 µg/mL"}
{"compound": "NNC(=O)c1ccncc1 [Isoniazid (INH), Isoniazid, reference compound]", "MIC": "0.125 µg/mL"}
{"compound": "CCCCCCCCCCCCCCCCCC(=O)N1CCCC2CN(c3c(F)cc4c(=O)c(C(=O)O)cn(C5CC5)c4c3OC)CC21 (stereo not shown) [Compound 16m]", "MIC": "> 512 µg/mL"}
